- experimentalProtocol: Selectivity index, ratio of IC50 for african green monkey (Cercopithecus aethiops) Vero cells to IC50 for chloroquine-resistant Plasmodium falciparum FcB1
- Type: toxicity, cell-based
- measurementContext: read-out: Ratio IC50
// reported selectivity ratio per item
// response body must contain only the number

[
  {
    "chemSmiles": "COc1cc2cccnc2c2nc(C)c3cc[nH]c3c12",
    "selectivity ratio": 132
  },
  {
    "chemSmiles": "COc1cc2cccnc2c2nc(C)c3ccoc3c12",
    "selectivity ratio": 39
  },
  {
    "chemSmiles": "Cc1nc2c(ccc3cccnc32)c2occc12",
    "selectivity ratio": 39
  }
]

Measured selectivity ratio of "Cc1nc2c(ccc3cccnc32)c2[nH]ccc12" : 54

* * *

- experimentalProtocol: Selectivity index, ratio of IC50 for african green monkey (Cercopithecus aethiops) Vero cells to IC50 for chloroquine-sensitive Plasmodium falciparum F32
- Assay type: toxicity, cell-based
- measurementContext: read-out: Ratio IC50
reportedMetric: selectivity ratio
Could you respond with only the numeric value?

Previously resolved entries follow.
[
  {
    "chemSmiles": "Cc1nc2c(ccc3cccnc32)c2occc12",
    "dataValue": 32
  },
  {
    "chemSmiles": "COc1cc2cccnc2c2nc(C)c3ccoc3c12",
    "dataValue": 72
  },
  {
    "chemSmiles": "COc1cc2cccnc2c2nc(C)c3cc[nH]c3c12",
    "dataValue": 72
  }
]

selectivity ratio measured on "Cc1nc2c(ccc3cccnc32)c2[nH]ccc12" = 47

The measurements presented in this section are drawn from ChEMBL document CHEMBL1155951.
